B1: PhoQ; a variant is named by its letters at X, in order, P23837 (parent)
chain: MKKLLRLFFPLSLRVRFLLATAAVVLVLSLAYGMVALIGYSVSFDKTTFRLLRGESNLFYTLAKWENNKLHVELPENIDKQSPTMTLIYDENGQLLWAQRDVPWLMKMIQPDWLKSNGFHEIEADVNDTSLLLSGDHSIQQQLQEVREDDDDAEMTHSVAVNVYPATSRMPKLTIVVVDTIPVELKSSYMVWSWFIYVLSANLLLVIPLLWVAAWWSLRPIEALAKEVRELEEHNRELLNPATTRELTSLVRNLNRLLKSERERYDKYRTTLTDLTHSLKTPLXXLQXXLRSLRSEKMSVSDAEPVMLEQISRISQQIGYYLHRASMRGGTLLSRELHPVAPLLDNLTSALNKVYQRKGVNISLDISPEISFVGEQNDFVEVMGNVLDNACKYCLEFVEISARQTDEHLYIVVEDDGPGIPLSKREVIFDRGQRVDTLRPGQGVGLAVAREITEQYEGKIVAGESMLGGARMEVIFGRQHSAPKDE

- Variants of: B1
- Assay comment: enrichment ratio after two sorts for PhoP signalling (ratio (wild type AVST 3.29)); higher = more functional
- Condition: with PhoP (E. coli)
Whole data set: some 140,000 sequences, median “enrichment ratio after two sorts for PhoP signalling” near 0, cut for the highest 2% near 11. Many of the other results were omitted from the sample, so the highest values are more common in it than they were.
Observed property: enrichment ratio
Enter the number alone.

# enrichment ratio (variant: FSAV ) is 0.409

# enrichment ratio (variant: TAVM ) is 2.01

# enrichment ratio (variant: MSFA ) is 2.31

# enrichment ratio (variant: GIME ) is 13.3

# enrichment ratio (variant: QAWV ) is 20.2

# enrichment ratio (variant: TSHN ) is 0.659

# enrichment ratio (variant: MSLA ) is 5.33

# enrichment ratio (variant: TANA ) is 15.9

# enrichment ratio (variant: SCMI ) is 27.9

# enrichment ratio (variant: SCIG ) is 3.69

# enrichment ratio (variant: SCMG ) is 25.9

# enrichment ratio (variant: TAGD ) is 9.3

# enrichment ratio (variant: MSHQ ) is 12

# enrichment ratio (variant: MSLF ) is 1.86

# enrichment ratio (variant: SCMW ) is 6.03

# enrichment ratio (variant: SCMA ) is 15.7

# enrichment ratio (variant: MSFC ) is 14.1

# enrichment ratio (variant: MSTC ) is 1.5

# enrichment ratio (variant: SCVG ) is 5.95

# enrichment ratio (variant: SIMA ) is 4.54
